- tested_system: Human immunodeficiency virus type 1 reverse transcriptase (Human immunodeficiency virus 1) (UniProt Q72547)
measured_property: log10 ID50 (log10 of the value in nM)
Transform log10 | Measure ID50 | Unit nM

Past entries and their recorded results:
{"compound": "CCC(c1nc(SC(C)C)[nH]c(=O)c1C)c1c(F)cccc1Cl (racemic)", "log10 ID50": 0.78}
{"compound": "CCCSc1nc(C(C)c2c(F)cccc2F)c(CC)c(=O)[nH]1 (racemic)", "log10 ID50": 0.48}
{"compound": "CCCCSc1nc(C(C)c2c(F)cccc2Cl)c(CC)c(=O)[nH]1 (racemic)", "log10 ID50": 1.34}

Here are 7 compounds. What values of log10 ID50 were reported for them?
1. CCCCSc1nc(C(C)c2c(F)cccc2Cl)cc(=O)[nH]1 (racemic)
2. CCc1c(C(C)c2c(F)cccc2F)nc(SC(C)C)[nH]c1=O (racemic)
3. CCc1c(C(C)c2c(F)cccc2Cl)nc(SC(C)C)[nH]c1=O (racemic)
4. CC(c1cc(=O)[nH]c(SC2CCCC2)n1)c1c(F)cccc1Cl (racemic)
5. CCc1c(C(C)c2c(F)cccc2F)nc(SC(C)CC)[nH]c1=O (racemic)
6. CCCCSc1nc(C(CC)c2c(F)cccc2Cl)c(C)c(=O)[nH]1 (racemic)
7. CCCCSc1nc(C(C)c2c(F)cccc2F)c(CC)c(=O)[nH]1 (racemic)

[1.00, 1.08, 1.68, 1.18, 1.04, 0.48, 0.48]

* * *

- protocol: Selectivity index, ratio of CC50 for human MT4 cells to EC50 for wild type HIV-1 NL4-3 infected in human MT4 cells
- Assay type: toxicity, cell-based
- assay_context: read-out: Ratio CC50/EC50
measured_property: selectivity ratio

Past entries and their recorded results:
{"molecule": "CC[C@@H](C)Sc1nc([C@@H](C)c2c(F)cccc2Cl)cc(=O)[nH]1", "selectivity ratio": "> 1110"}
{"molecule": "CCc1c(C(C)c2c(F)cccc2F)nc(SC(C)C)[nH]c1=O (racemic)", "selectivity ratio": "> 34"}
{"molecule": "CC(C)Sc1nc(Cc2c(F)cccc2Cl)cc(=O)[nH]1", "selectivity ratio": "> 210"}
{"molecule": "CCC(C)Sc1nc(C(C)c2c(F)cccc2Cl)cc(=O)[nH]1 (racemic)", "selectivity ratio": "> 73000"}
{"molecule": "CCCSc1nc(C(C)c2c(F)cccc2F)c(CC)c(=O)[nH]1 (racemic)", "selectivity ratio": "> 12"}
{"molecule": "O=c1cc(Cc2c(F)cccc2Cl)nc(SC2CCCC2)[nH]1", "selectivity ratio": "> 493"}
{"molecule": "CCc1c(C(C)c2c(F)cccc2Cl)nc(SC(C)C)[nH]c1=O (racemic)", "selectivity ratio": "> 3"}
{"molecule": "CCCSc1nc(C(CC)c2c(F)cccc2F)c(C)c(=O)[nH]1 (racemic)", "selectivity ratio": "> 250"}

Here are 2 molecules. What values of selectivity ratio were reported for them?
1. CCCSc1nc(C(C)c2c(F)cccc2Cl)cc(=O)[nH]1 (racemic)
2. CC(c1cc(=O)[nH]c(SC2CCCC2)n1)c1c(F)cccc1Cl (racemic)

1: > 25000; 2: > 237000

* * *

- protocol: Cytotoxicity against human MT4 cells assessed as induction of cell death by MTT method
- Assay type: cell-based
Record form. Attribute: CC50. Fill in for each entry.

Past entries and their recorded results:
{"molecule": "CCCCSc1nc(O)c(C)c(C(C)c2c(F)cccc2F)n1 (racemic)", "result": "> 3 µM"}
{"molecule": "Cc1c(C(C)c2c(F)cccc2Cl)nc(SC2CCCC2)[nH]c1=O (racemic)", "result": "> 15 µM"}
{"molecule": "CC[C@H](C)Sc1nc([C@H](C)c2c(F)cccc2Cl)c(C)c(=O)[nH]1 (racemic)", "result": "> 70.4 µM"}

Here are 7 molecules. What values of CC50 were reported for them?
1. CC[C@H](C)Sc1nc([C@@H](C)c2c(F)cccc2Cl)c(C)c(=O)[nH]1
2. CCC(C)Sc1nc(Cc2c(F)cccc2Cl)cc(=O)[nH]1 (stereo unspecified)
3. CC(C)Sc1nc(Cc2c(F)cccc2Cl)cc(=O)[nH]1
4. CCCCSc1nc(C(CC)c2c(F)cccc2Cl)c(C)c(=O)[nH]1 (racemic)
5. O=c1cc(Cc2c(F)cccc2Cl)nc(SC2CCCC2)[nH]1
6. CC(c1cc(=O)[nH]c(SC2CCCC2)n1)c1c(F)cccc1Cl (racemic)
7. CCc1c(C(C)c2c(F)cccc2F)nc(SC(C)CC)[nH]c1=O (racemic)

["> 47 µM", "> 76 µM", "> 80 µM", "> 3 µM", "> 74 µM", "> 71 µM", "> 3 µM"]

Here are 6 molecules. What values of CC50 were reported for them?
1. Cc1ccnc2c1NC(=O)c1cccnc1N2C1CC1
2. CCCCSc1nc(Cc2c(F)cccc2Cl)cc(=O)[nH]1
3. Cc1c(C(C)c2c(F)cccc2F)nc(SC2CCCC2)[nH]c1=O (racemic)
4. CCC(c1nc(SC2CCCC2)[nH]c(=O)c1C)c1c(F)cccc1Cl (racemic)
5. CCc1c(C(C)c2c(F)cccc2Cl)nc(SC(C)C)[nH]c1=O (racemic)
6. CC[C@@H](C)Sc1nc([C@H](C)c2c(F)cccc2Cl)c(C)c(=O)[nH]1

1: > 7 µM; 2: > 76 µM; 3: > 3 µM; 4: > 3 µM; 5: > 3 µM; 6: > 70.4 µM

Here are 5 molecules. What values of CC50 were reported for them?
1. CCCCSc1nc(Cc2c(F)cccc2Cl)c(C)c(=O)[nH]1
2. CCCSc1nc(C(C)c2c(F)cccc2Cl)c(C)c(=O)[nH]1 (racemic)
3. CCc1c(C(C)c2c(F)cccc2Cl)nc(SC2CCCC2)[nH]c1=O (racemic)
4. Cc1c(Cc2c(F)cccc2Cl)nc(SC2CCCC2)[nH]c1=O
5. CCc1c(C(C)c2c(F)cccc2Cl)nc(SC(C)CC)[nH]c1=O (racemic)

1. > 73 µM
2. > 1.5 µM
3. > 3 µM
4. > 71 µM
5. > 3 µM
